Property: melting point; scope: individual compounds
Where a name gives a salt, the structure may show the parent alone.

Illustrative cases are given below, each with its answer.
compound="COc1cc2c(cc1CN[C@H]1CCCN(C)[C@H]1c1ccccc1)C(C)(C)C(=O)N2C (as salt: hydrochloride)" result_value="> 250 °C (dec.)"
compound="COc1cc2c(cc1CNC1CCCNC1c1ccccc1)NC(=O)CC2 (stereo not shown) (as salt: HCl)" result_value="233 to 235 °C"
compound="COc1cc2c(cc1CNC1CCCNC1c1ccccc1)N(C)C(=O)CC2(C)C (stereo not shown) (as salt: hydrochloride)" result_value="> 280 °C"

Now for a further compound.
Exercise: Can you look up the measured melting point of COc1cc2c(cc1CNC1CCCNC1c1ccccc1)N(S(C)(=O)=O)C(=O)CC2 (stereo not shown) (as salt: hydrochloride) for me?
Solution: 237 to 241 °C
